- System: HS 578T breast
- assayExplanation: NCI tumour cell line growth inhibition, 384-well format
Kindly state TGI for each of the entries shown.
One number for each entry, in µM.

- moleculeSmiles: "O=C(NO)c1ccc(CN(c2cnccn2)c2cnccn2)cc1"
  unitSpec: "µM"
  TGI: 22.4

Query compound follows.
What value of TGI on HS 578T breast does "CN1CCN(c2ccc(Nc3ncc4cc(C#N)c(=O)n(C5CCCC5)c4n3)cc2)CC1" have?
3.95

###

- System: MDA-MB-468 breast
- assayExplanation: NCI tumour cell line growth inhibition, 384-well format
Kindly state GI50 for each of the entries shown.

Before answering, review these 4 worked examples.
- moleculeSmiles: "Cn1c(=O)c2c(ncn2CC(=O)Nc2ccc(-c3ccccc3)nn2)n(C)c1=O"
  recordedValue: "15900 nM"
- moleculeSmiles: "CN1CCN(c2ccc(Nc3ncc4cc(C#N)c(=O)n(C5CCCC5)c4n3)cc2)CC1"
  recordedValue: "1890 nM"
- moleculeSmiles: "O=C(NCc1ccc(S(=O)(=O)c2cc(F)cc(F)c2)cc1)c1ccc2nccn2c1"
  recordedValue: "< 10 nM"
- moleculeSmiles: "O=C(NO)c1ccc(CN(c2cnccn2)c2cnccn2)cc1"
  recordedValue: "2490 nM"

What value of GI50 on MDA-MB-468 breast does "CC[C@@]1(O)C(=O)OCc2c1cc1n(c2=O)Cc2c-1nc1cc(F)c(C)c3c1c2[C@@H](N)CC3" have?
< 10 nM

###

- System: SR leukemia
- assayExplanation: NCI tumour cell line growth inhibition, 384-well format
Kindly state TGI for each of the entries shown.

- moleculeSmiles: "O=C(NO)c1ccc(CN(c2cnccn2)c2cnccn2)cc1"
  assayTarget: "SR leukemia"
  TGI: "3.87 µM"
- moleculeSmiles: "O=C(NCc1ccc(S(=O)(=O)c2cc(F)cc(F)c2)cc1)c1ccc2nccn2c1"
  assayTarget: "SR leukemia"
  TGI: "< 0.01 µM"
- moleculeSmiles: "Cn1c(=O)c2c(ncn2CC(=O)Nc2ccc(-c3ccccc3)nn2)n(C)c1=O"
  assayTarget: "SR leukemia"
  TGI: "> 100 µM"

Query molecule follows.
Which TGI reading was recorded for the molecule "CC[C@@]1(O)C(=O)OCc2c1cc1n(c2=O)Cc2c-1nc1cc(F)c(C)c3c1c2[C@@H](N)CC3" ?
< 0.01 µM

###

- System: MDA-MB-435 melanoma
- assayExplanation: NCI tumour cell line growth inhibition, 384-well format
Kindly state TGI for each of the entries shown.

Hi there! I need TGI for each item below, if you can.
1. Cn1c(=O)c2c(ncn2CC(=O)Nc2ccc(-c3ccccc3)nn2)n(C)c1=O
2. CN1CCN(c2ccc(Nc3ncc4cc(C#N)c(=O)n(C5CCCC5)c4n3)cc2)CC1
3. O=C(NCc1ccc(S(=O)(=O)c2cc(F)cc(F)c2)cc1)c1ccc2nccn2c1
4. Cn1cc(-c2ccc(-c3cncc(Cl)c3N3CCC4(CCNC4=O)CC3)cc2)cn1

1. > 100 µM
2. 66.9 µM
3. < 0.01 µM
4. > 91.6 µM

###

- Tested on: HL-60(TB) leukemia
- assayExplanation: NCI tumour cell line growth inhibition, 384-well format
outcomeMeasure: TGI (µM)
Numbers only, in µM.

- moleculeSmiles: "Cn1cc(-c2ccc(-c3cncc(Cl)c3N3CCC4(CCNC4=O)CC3)cc2)cn1"
  TGI / µM: 5.74

Query compound follows.
What value of TGI on HL-60(TB) leukemia does "COc1ccc2c(Oc3ccc(NC(=O)c4c(C)n(CC(C)(C)O)n(-c5ccccc5)c4=O)nc3)ccnc2c1" have?
14.9

###

- Test system: NCI-H322M lung
- assayExplanation: NCI tumour cell line growth inhibition, 384-well format; in the data active = GI50 below about 0.43 µM; inactive = the rest
# valid calls are 1.0 for active, 0.0 for inactive; nothing else

// below: answered compounds
- moleculeSmiles: "O=C(NCc1ccc(S(=O)(=O)c2cc(F)cc(F)c2)cc1)c1ccc2nccn2c1"
  groupLabel: 1.0
- moleculeSmiles: "CN1CCN(c2ccc(Nc3ncc4cc(C#N)c(=O)n(C5CCCC5)c4n3)cc2)CC1"
  groupLabel: 0.0
- moleculeSmiles: "Cn1c(=O)c2c(ncn2CC(=O)Nc2ccc(-c3ccccc3)nn2)n(C)c1=O"
  groupLabel: 0.0

# next compound below
Kindly provide the recorded test outcome for the following compound: "CC[C@@]1(O)C(=O)OCc2c1cc1n(c2=O)Cc2c-1nc1cc(F)c(C)c3c1c2[C@@H](N)CC3"
1.0

###

- System: OVCAR-8 ovarian
- assayExplanation: NCI tumour cell line growth inhibition, 384-well format
outcomeMeasure: TGI

Before answering, review these 2 worked examples.
- moleculeSmiles: "Cn1cc(-c2ccc(-c3cncc(Cl)c3N3CCC4(CCNC4=O)CC3)cc2)cn1"
  TGI: "> 100 µM"
- moleculeSmiles: "COc1ccc2c(Oc3ccc(NC(=O)c4c(C)n(CC(C)(C)O)n(-c5ccccc5)c4=O)nc3)ccnc2c1"
  TGI: "> 100 µM"

Query compound follows.
Which TGI reading was recorded for the compound "O=C(NCc1ccc(S(=O)(=O)c2cc(F)cc(F)c2)cc1)c1ccc2nccn2c1" ?
< 0.01 µM
